Provenance of the data: the RNAGym collection of RNA variant scans (doi:10.1073/pnas.2313332121)

B1: TPR t1 (parent)
chain: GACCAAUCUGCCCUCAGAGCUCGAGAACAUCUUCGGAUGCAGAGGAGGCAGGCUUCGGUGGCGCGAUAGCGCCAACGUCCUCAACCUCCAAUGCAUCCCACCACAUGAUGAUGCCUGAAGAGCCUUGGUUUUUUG

Variants of: B1
Assay: polymerase ribozyme fitness, log enrichment relative to wild type (log ratio); higher = more active; in vitro selection for triplet polymerase activity
Each record's class is read off its polymerase ribozyme fitness (log ratio) using these ranges: one = under -4, two = from -4 up to -2, three = -2 and over

Known results for variants:
>  <seq>
GACCAAUCUGCCCUCAGAGCUCGAGAACAUCUUUGGAUGCAGAGGAGGCAGGCUUCGGUGGCGCGAUAGGGUCAACGUCCUCAACCUCCAAUGCAUCCCACCACAUGAUGAUGCCUGAAGAGCCUUGGUUUUUUG

>  <class>
one

$$$$
>  <seq>
GAUCAAUCUGCCGUCAGAGCUCGAGAACAUCUUCGGAUGCAGAGGAGGCAGGCUUCGGUGGCGCGAUAGCGCCAACGUCCUCAACCUCCAAUGCAUCCCACCACAUGAUGCUGCCUGAAGAGCCUUGGUUUUUUG

>  <class>
three

$$$$
>  <seq>
GACCAAUCUGCCCUCAGAGCUCGAGAACAUCUUCGGAUGCAGAGGAGGCAGGCUUCGGUGGCGAGAUAGCGCCAACGUCCUCUACCUCCAAUGCAUCCCACCACAUGAUGAUGCCUGAAGAGCCUUGGUUUUUUG

>  <class>
one

$$$$
>  <seq>
GACCAAUCUGCCCUCAGAGCUCGAGAACAUCUUCGGUUGCAGUGGAGGCAGGCUUCGGUGGCGCGAUAGCGCAAACGUCCUCAACCUCCAAUGCACCCCACCACAUGAUGCAGCCUGAAGAGCCUUGGUUUUUUG

>  <class>
one

$$$$

Query: Form field 'band' for GACCAAUCUGCCCUCAGAGCUCGAGAACAUCUUCGGAUGCAGAGGAGGCAGGCUUCGGUGGCGCGAUAGCGCCAACGUCUUCAACCUCCAAUGCAUCCCACCACAUGAUAAUGCCUGAAGAGCCUUGGUUUUUUG
Reply: three

Query: And what about the variant GACCAAUCUGCCCUCAGAGCUCGAGAACAUCUUCGGAUGCAGAGGACGCAGUCUUCGGUGGCGCGAUAGCGCCGACGUCCUCAACCUCCAAUGCAACCCACCACAUGAUGAUGCCUGAAGAGCCUUGGUUUUUUG ?
Reply: one

Query: GACCAAUCUGCCCUCACAGCUCGAGAACAUCUUCGGAUGCAGAGGAGGAAGGCUUCGGUGGCGCGAUAGCGUCAACGUCCUUAACCUCCAAUGCAUCCCACCACAUGAUGAUGUCUGAAGAGCCUUGGUUUUUUG , same question.
Reply: one
